Reference for the values: PubChem BioAssay (NCATS)

protocol.summary: Primary qHTS for Vero E6 cytotoxicity: counterscreen for inhibitors of SARS-S pseudo-typed particle cell entry (AID 1479150)
condition: cell viability; series mostly up to 57.1 µM
Inconclusive results are not listed. Active and inactive are the calls of the source. Calls follow the shape of the full dose curve.
readout: outcome

Here's what some known entries look like.
{"compound": "CC/C=C(\\C(=O)N[C@@H]1C(=O)N2C(C(=O)OCOC(=O)C(C)(C)C)=C(COC(N)=O)CS[C@H]12)c1csc(N)n1", "outcome": "inactive"}
{"compound": "CCOC(=O)N1CCC(=C2c3ccc(Cl)cc3CCc3cccnc32)CC1", "outcome": "inactive"}
{"compound": "Nc1nc2c(ncn2COC(CO)CO)c(=O)[nH]1", "outcome": "inactive"}
{"compound": "Cc1ccc(NC(=O)c2ccc(CN3CCN(C)CC3)cc2)cc1Nc1nccc(-c2cccnc2)n1", "outcome": "inactive"}
{"compound": "CC1(C)O[C@@H]2[C@@H](CO[C@@]3(COS(N)(=O)=O)OC(C)(C)O[C@@H]23)O1", "outcome": "inactive"}
{"compound": "COCCCC/C(=N\\OCCN)c1ccc(C(F)(F)F)cc1", "outcome": "inactive"}

Items follow; give outcome for each.
1. C[C@H]1O[C@H](O[C@H]2[C@H](O)[C@@H](O)[C@@H](O[C@H]3[C@H](O)[C@@H](O)[C@H](O)O[C@@H]3CO)O[C@@H]2CO)[C@H](O)[C@@H](O)[C@@H]1N[C@H]1C=C(CO)[C@@H](O)[C@H](O)[C@H]1O
2. NNCCc1ccccc1
3. CN(C)CCc1c[nH]c2ccc(CS(=O)(=O)N3CCCC3)cc12
4. COc1cc(C(=O)NCc2ccc(OCCN(C)C)cc2)cc(OC)c1OC

Response:
inactive
inactive
inactive
inactive

----------
protocol.summary: qHTS Assay for Lipid Storage Modulators (AID 1519)
condition: Drosophila S3 cells, BODIPY lipid droplet/cell ratio, laser cytometry; measured here: lipid channel max response; cells loaded with oleic acid
Results filed as inconclusive are left out.
readout: max response (%)
Give bare numbers, in %.

Here's what some known entries look like.
{"compound": "NCC(O)c1ccc(O)cc1 (configuration not stated)", "max response / %": 23.7}
{"compound": "c1ccc(C2CC2)c(OCC2=NCCN2)c1", "max response / %": 26.1}
{"compound": "CCC(COC(=O)c1cc(OC)c(OC)c(OC)c1)(c1ccccc1)N(C)C (configuration not stated)", "max response / %": -1.9}
{"compound": "Cc1ncc(CNC(=O)N(CCCl)N=O)c(N)n1", "max response / %": 18}
{"compound": "Clc1ccc(COC(Cn2ccnc2)c2ccc(Cl)cc2Cl)cc1 (configuration not stated)", "max response / %": -20.8}

Items follow; give max response for each.
1. CNCCC(Oc1ccc(C(F)(F)F)cc1)c1ccccc1 (configuration not stated)
2. O=P1(NCCCl)OCCCN1CCCl (configuration not stated)

Response:
[3.92, -6.2]

----------
protocol.summary: Immunotoxin (HA22) sensitization/mitigation study. Vehicle arm (PBS) (AID 1159510)
condition: cancer cells viability with PBS vehicle (HA22 study); series mostly up to 46.1 µM
Active and inactive are the calls of the source. How the calls were made is not given here.
# output must be one of label 1 for active, label 0 for inactive

Some solved entries appear below for comparison.
{"compound": "C[C@@H]1[C@@H](C(=O)C[C@H]2O[C@@H]3O[C@]4(C)CC[C@@H]5[C@H](C)CC[C@@H]([C@H]2C)[C@@]35OO4)O[C@@H]2O[C@]3(C)CC[C@H]4[C@H](C)CC[C@@H]1[C@@]24OO3", "cat": "label 1"}
{"compound": "CC(C)n1c(C=C[C@H](O)C[C@H](O)CC(=O)O)c(-c2ccc(F)cc2)c2ccccc21", "cat": "label 1"}
{"compound": "Cc1nc(Nc2ncc(C(=O)Nc3c(C)cccc3Cl)s2)cc(N2CCN(CCO)CC2)n1", "cat": "label 1"}
{"compound": "C[C@]12CCC(=O)C(O)=C1CC[C@@H]1[C@@H]2CC[C@]2(C)C(=O)CC[C@@H]12", "cat": "label 0"}
{"compound": "CO[C@@H](C(=O)N1Cc2[nH]nc(NC(=O)c3ccc(N4CCN(C)CC4)cc3)c2C1)c1ccccc1", "cat": "label 1"}
{"compound": "CCN(CCO)CCCC(C)Nc1ccnc2cc(Cl)ccc12 (stereo not given)", "cat": "label 0"}

Request: Record lookup: outcome of this test for O=C1Nc2ccc(Cl)cc2[C@@](C#CC2CC2)(C(F)(F)F)O1 ?
Response: label 1

Request: Record lookup: outcome of this test for CCCCC/C=C\C/C=C\C/C=C\C/C=C\CCCC(=O)NC1CC1 ?
Response: label 0

Request: Record lookup: outcome of this test for CC1=C2C[C@@H]3[C@@H](CC=C4C[C@@H](O)CC[C@@]43C)[C@@H]2CC[C@]12O[C@H]1C[C@H](C)CN[C@H]1[C@H]2C ?
Response: label 1

Request: Record lookup: outcome of this test for CC(=O)SC[C@@H](C)C(=O)N1CCC[C@H]1C(=O)N[C@@H](Cc1ccccc1)C(=O)O ?
Response: label 0

Request: Record lookup: outcome of this test for CN(C)CCN(C)CCc1ccc(Cl)c(Cl)c1 ?
Response: label 1

----------
tested.target: Calcium and integrin-binding protein 1 (Homo sapiens)
protocol.summary: Validation qHTS for Identification of Calcium Integrin Binding protein 1 (CIB1) Competitor (AID 1508618); also: % is scaled to controls: 0 for no effect and ±100 for the full control effect
condition: CIB1-GST / FITC-alphaIIb peptide fluorescence polarization; series mostly up to 114 µM
Records with an inconclusive call do not appear. Activity calls are given as the source filed them. Calls come from the whole dose curve; as a rule, active = well fitted curve in the direction sought with a large enough effect; inconclusive = small, poorly fitted or top-dose-only effect, or another doubt; inactive = no such curve, though single readings can be large or run the other way.
readout: outcome

Here's what some known entries look like.
{"compound": "COc1ccccc1N1CCNCC1", "readout.value": "inactive"}
{"compound": "CC(=O)[C@H]1CC[C@H]2[C@@H]3CC[C@H]4C[C@H](O)CC[C@]4(C)[C@H]3C(=O)C[C@]12C", "readout.value": "inactive"}
{"compound": "C=C(C)[C@H]1Cc2c(ccc3c2O[C@@H]2COc4cc(OC)c(OC)cc4[C@@H]2C3=O)O1", "readout.value": "inactive"}
{"compound": "O=c1[nH]c2ccccc2n1CCCN1CCC(n2c(=O)[nH]c3cc(Cl)ccc32)CC1", "readout.value": "inactive"}
{"compound": "N#CC(C#N)=Cc1ccc(O)c(O)c1", "readout.value": "inactive"}

Continue with the compound presented below.
Request: Short answer please: outcome, Calcium and integrin-binding protein 1 (Homo sapiens), entry O=C1NCN(c2ccccc2)C12CCN(CC1COc3ccccc3O1)CC2 (stereo unspecified)
Response: inactive

----------
Test system: ATS189
protocol.summary: qHTS profiling for inhibitors of Plasmodium falciparum proliferation (AID 504749);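 also: 0% = DMSO vehicle and full inhibition = artemisinin control; nearly all actives have a fitted effect of over 60% in size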
condition: P. falciparum in erythrocytes, SYBR Green DNA, 72 h; series mostly up to 28.7 µM
Results filed as inconclusive are left out. The source made the active and inactive calls. Calls come from the whole dose curve; as a rule, active = well fitted inhibition curve with a large enough effect; inconclusive = small, poorly fitted or top-dose-only effect; inactive = flat fitted curve, though single readings scatter.
# output must be one of active, inactive

{"compound": "CC1NCCOC1c1ccccc1 (configuration not stated)", "cat": "inactive"}

# ---- query compound ----
Request: Record lookup: outcome of this test for NCC(O)c1ccc(O)cc1 (configuration not stated) ?
Response: inactive

----------
Tested on: UISO
protocol.summary: qHTS assay to identify novel small-molecules to repurpose for Merkel cell carcinoma treatment (AID 1296009); also: % is scaled to controls: 0 for no effect and ±100 for the full control effect; nearly all actives have a fitted effect of over 60% in size
condition: MCC and control cell lines, CellTiter-Glo viability, 72 h; series mostly up to 46 µM
Records with an inconclusive call do not appear. Activity calls are given as the source filed them. Calls follow the shape of the dose curve; as a rule, active = well fitted inhibition curve with a large enough effect; inconclusive = small, poorly fitted or top-dose-only effect; inactive = flat fitted curve, though single readings scatter.
# output must be one of active, inactive

Some solved entries appear below for comparison.
{"compound": "Clc1cccc(N2CCNCC2)c1", "cat": "inactive"}
{"compound": "CCN(CC)C(=O)N[C@@H]1C=C2c3cccc4[nH]cc(c34)C[C@@H]2N(C)C1", "cat": "inactive"}

Request: Record lookup: outcome of this test for COC1(CS(=O)c2ccccc2)CCN(CCc2c[nH]c3ccc(F)cc23)CC1 (configuration not stated) ?
Response: inactive

Request: Record lookup: outcome of this test for O=C(NC(O)C(Cl)(Cl)Cl)NC(O)C(Cl)(Cl)Cl (configuration not stated) ?
Response: inactive

Request: Record lookup: outcome of this test for CCN(CC)CCOC(=O)C(O)(c1ccccc1)c1ccccc1 ?
Response: inactive

Request: Record lookup: outcome of this test for CC(=O)Nc1cc([As](=O)(O)O)ccc1O ?
Response: inactive

----------
condition: Ebola virus entry assay, ratio channel
Active and inactive are the calls of the source. No rule for the calls is given here.
readout: AC50

Here's what some known entries look like.
{"smiles.repr": "O=c1n(CCCN2CCN(c3cccc(Cl)c3)CC2)nc2ccccn12", "AC50": "inactive"}
{"smiles.repr": "Cn1c(CCCC(=O)O)nc2cc(N(CCCl)CCCl)ccc21", "AC50": "inactive"}
{"smiles.repr": "CCCN1CCC[C@@H]2Cc3[nH]ncc3C[C@H]21", "AC50": "inactive"}
{"smiles.repr": "CNCC[C@@H](Oc1ccccc1C)c1ccccc1", "AC50": "10 µM (active)"}
{"smiles.repr": "CN(C)[C@@H]1C(=O)C(C(N)=O)=C(O)[C@@]2(O)C(=O)C3=C(O)c4c(O)ccc(Cl)c4[C@@H](O)[C@H]3C[C@@H]12", "AC50": "28.2 µM (active)"}

Items follow; give AC50 for each.
1. NC(=O)NO
2. CCC1(c2ccccc2)C(=O)NCNC1=O
3. COc1ccc(Cc2nccc3cc(OC)c(OC)cc23)cc1OC
4. C=C(c1ccc(C(=O)O)cc1)c1cc2c(cc1C)C(C)(C)CCC2(C)C
5. CC[N+](CC)(CC)CC

Response:
1. inactive
2. inactive
3. inactive
4. inactive
5. inactive

Items follow; give AC50 for each.
1. CN(C)CC/C=C1\c2ccccc2COc2ccccc21
2. Cc1cc2c(s1)Nc1ccccc1N=C2N1CCN(C)CC1

Response:
14.1 µM (active)
inactive
